Origin of values: patent US10017509B2

Could you please report measured remaining activity at 1 µM for the items listed next?
- assay system: Vps34 (PIK3C3 lipid kinase) (Homo sapiens, UniProt Q8NEB9)
- Sequence (Q8NEB9 whole entry, species assumed): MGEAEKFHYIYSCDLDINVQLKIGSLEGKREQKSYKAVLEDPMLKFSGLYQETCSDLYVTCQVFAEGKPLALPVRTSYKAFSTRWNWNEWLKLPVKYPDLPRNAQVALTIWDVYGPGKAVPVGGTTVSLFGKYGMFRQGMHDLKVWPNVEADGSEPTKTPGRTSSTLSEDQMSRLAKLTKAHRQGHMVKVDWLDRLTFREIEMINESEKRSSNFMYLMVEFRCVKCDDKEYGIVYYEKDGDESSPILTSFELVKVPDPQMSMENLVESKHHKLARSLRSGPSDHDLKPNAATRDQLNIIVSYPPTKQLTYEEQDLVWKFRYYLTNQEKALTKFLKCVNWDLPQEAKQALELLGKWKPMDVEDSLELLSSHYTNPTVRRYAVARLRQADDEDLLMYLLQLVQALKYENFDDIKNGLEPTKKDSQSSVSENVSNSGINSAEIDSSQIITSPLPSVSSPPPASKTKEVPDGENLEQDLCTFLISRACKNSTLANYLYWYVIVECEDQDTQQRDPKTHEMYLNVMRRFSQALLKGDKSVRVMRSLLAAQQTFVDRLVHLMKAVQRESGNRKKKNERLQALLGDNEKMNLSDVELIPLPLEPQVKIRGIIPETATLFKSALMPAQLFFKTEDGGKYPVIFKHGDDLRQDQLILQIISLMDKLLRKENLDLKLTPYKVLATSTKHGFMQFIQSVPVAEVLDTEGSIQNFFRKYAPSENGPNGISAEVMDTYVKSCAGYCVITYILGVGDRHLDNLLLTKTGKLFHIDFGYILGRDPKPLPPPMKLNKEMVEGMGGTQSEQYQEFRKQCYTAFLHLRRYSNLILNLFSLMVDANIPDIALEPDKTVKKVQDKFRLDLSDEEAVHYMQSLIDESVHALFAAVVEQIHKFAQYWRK
- protocol text: Biochemical Vps34 lipid kinase assay (ADP-Glo)
- measurement setup: 1 h, single dose 1 μM compound; residual activity compared to control (DMSO); read-out: VPS34_1microM_% of cntrl
Answers are plain numbers, in %.

These recorded examples may help you get a feel for the data.
{"compound": "CS(=O)(=O)N1CCNC(=O)CN2CCN(CC2)Cc2cccc(c2)Nc2nccc(n2)-c2ccc(nc2)C1", "remaining activity at 1 µM / %": 14.6}
{"compound": "O=C1CN2CCN(CC2)Cc2cccc(c2)Nc2nccc(n2)-c2ccc(nc2)N2CC(O)CC2CCN1 (single isomer, unassigned)", "remaining activity at 1 µM / %": 13.6}
{"compound": "CN1CCCNc2ccc(cn2)-c2ccnc(n2)Nc2cccc(c2)CN2CCC(CC2)CC1=O", "remaining activity at 1 µM / %": 53.2}
{"compound": "CN1CCCN(C)c2ccc(cn2)-c2ccnc(n2)Nc2cccc(c2)CN2CCNC(C2)C1=O (stereo not shown)", "remaining activity at 1 µM / %": 20.7}
{"compound": "COCCN1CCNc2ccc(cn2)-c2ccnc(n2)Nc2cccc(c2)CN2CCN(CC2)CC1=O", "remaining activity at 1 µM / %": 23.6}
{"compound": "Cc1cc2cc(c1)Nc1nccc(n1)-c1ccc(nc1)N(C)CCCN(C)C(=O)CN1CCN(CC1)C2", "remaining activity at 1 µM / %": 41.1}

Below is a list of compounds. For each, state its recorded remaining activity at 1 µM.
1. NC(=O)C1CN2CCN1Cc1cccc(c1)Nc1nccc(n1)-c1ccc(nc1)NCCCNC(=O)C2 (stereo not shown)
2. COCCN1CCNC(=O)CN2CCN(CC2)Cc2cccc(c2)Nc2nccc(n2)-c2ccc(nc2)C1
3. CN1CCCN(C)c2ccc(cn2)-c2ccnc(n2)Nc2cncc(c2)CN2CCN(CC2)CC1=O
4. CN1CCN(C)c2ccc(cn2)-c2ccnc(n2)Nc2cccc(c2)CN2CCNC(C2)C1=O (stereo not shown)

Result:
[3.56, 10.2, 23.9, 28.4]

----------
- assay system: EF2K (Homo sapiens)
- Construct: host or cells: LN-229 cell lysate
- Sequence (O00418 1-725): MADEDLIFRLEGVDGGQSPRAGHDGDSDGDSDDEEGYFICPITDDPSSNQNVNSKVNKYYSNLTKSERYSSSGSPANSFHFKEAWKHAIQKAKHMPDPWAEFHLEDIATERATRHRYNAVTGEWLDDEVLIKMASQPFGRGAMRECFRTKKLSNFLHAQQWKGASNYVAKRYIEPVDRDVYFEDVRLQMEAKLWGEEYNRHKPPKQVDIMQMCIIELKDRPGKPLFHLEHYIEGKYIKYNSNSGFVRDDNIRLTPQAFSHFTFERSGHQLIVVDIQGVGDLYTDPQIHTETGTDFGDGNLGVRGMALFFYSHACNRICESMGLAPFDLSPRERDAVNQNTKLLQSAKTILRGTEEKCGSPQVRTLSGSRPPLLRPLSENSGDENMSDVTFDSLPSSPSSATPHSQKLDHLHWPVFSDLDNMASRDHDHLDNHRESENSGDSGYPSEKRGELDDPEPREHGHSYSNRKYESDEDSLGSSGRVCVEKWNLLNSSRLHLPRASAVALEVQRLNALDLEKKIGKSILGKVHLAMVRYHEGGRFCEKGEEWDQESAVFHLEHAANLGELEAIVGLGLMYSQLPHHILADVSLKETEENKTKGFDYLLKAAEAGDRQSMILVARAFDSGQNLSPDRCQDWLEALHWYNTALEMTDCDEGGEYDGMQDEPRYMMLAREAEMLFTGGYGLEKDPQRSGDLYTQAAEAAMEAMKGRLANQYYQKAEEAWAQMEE
- protocol text: Biochemical EF2K lysate-based kinase assay (AlphaLISA p-eEF2 Thr56)
- measurement setup: pIC50 = -log IC50 (M), read-out: eEF2K_C_alphalisa pIC50 (converted)
- Excerpt: Biochemical EF2K Lysate-Based Kinase Assay LN-229 cells were purchased from ATCC (CRL-2611); these are glioblastoma cells. Cell lysates from LN229 were used in this kinase assay to provide both the kinase and the substrate (EF2). The AlphaLISA p-eEF2 (Thr56) detection assay was developed using a sandwich assay format with two specific antibodies recognizing different epitopes of the target, including one antibody against the phosphorylation site of interest. […]
assay endpoint: IC50

Consider the worked cases shown below.
{"compound": "CN1CCN(C)c2ccc(cn2)-c2ccnc(n2)Nc2cccc(c2)CN2CCN(C)C(C2)C1=O (centres unmarked)", "assay endpoint": "IC50", "recorded value": "> 3.02e-05 M"}
{"compound": "O=C1CN2CCN(CC2)Cc2cccc(c2)Nc2nccc(n2)-c2ccc(nc2)N2CC(O)CC2CCN1 (single isomer, unassigned) [Compound 89]", "assay endpoint": "IC50", "recorded value": "~6.31e-06 M"}
{"compound": "CN1CCCN(C)c2ccc(cn2)-c2ccnc(n2)Nc2cccc(c2)CN2CCN(CC1=O)C(=O)C2", "assay endpoint": "IC50", "recorded value": "3.39e-07 M"}

For each of the compounds below, state IC50.
1. O=C1CN2CCN(Cc3cccc(c3)Nc3nccc(n3)-c3ccc(nc3)NCCCN1)C(CO)C2 (single isomer, unassigned) [Compound 48]
2. CN1CCN2Cc3cccc(c3)Nc3nccc(n3)-c3ccc(nc3)NCCCNC(=O)CC1C2 (centres unmarked)
3. CC1CN2CCN1CC(=O)NCCCNc1ccc(cn1)-c1ccnc(n1)Nc1cccc(c1)C2 (single isomer, unassigned) [Compound 137]
4. CN1CCCN(C)c2ccc(cn2)-c2ccnc(n2)Nc2ccc(C(=O)O)c(c2)CN2CCN(CC2)CC1=O
5. O=C1CC2CN(CCN2)Cc2cccc(c2)Nc2nccc(n2)-c2ccc(nc2)NCCCN1 (centres unmarked)

Result:
1. 5.5e-06 M
2. 7.59e-06 M
3. 1.95e-06 M
4. 4.57e-07 M
5. 6.03e-06 M

----------
- assay system: Vps34 (PIK3C3 lipid kinase) (Homo sapiens)
- protocol text: Biochemical Vps34 lipid kinase assay (ADP-Glo)
- measurement setup: 1 h, single dose 1 μM compound; residual activity compared to control (DMSO); read-out: VPS34_1microM_% of cntrl
Using remaining activity at 1 µM as the sorting value, the categories are low band = under 7%, middle band = from 7% up to 10%, high band = 10% and over

Reference set, count: 2
{"molecule": "C#CCN1CCNC(=O)CN2CCN(CC2)Cc2cccc(c2)Nc2nccc(n2)-c2ccc(nc2)C1", "category": "high band"}
{"molecule": "COCC1C(=O)NCCCNc2ccc(cn2)-c2ccnc(n2)Nc2cccc(c2)CN2CCN1CC2 (stereo not shown)", "category": "low band"}

Q: Note: place this molecule into its band. Item: CN1CCCN(C)c2ccc(cn2)-c2ccnc(n2)Nc2cccc(c2)CCN2CCN(CC2)CC1=O
Result: low band

Q: Tag the class for Cc1c2cccc1Nc1nccc(n1)-c1ccc(nc1)NCCCNC(=O)CN1CCN(CC1)C2
Result: high band

Q: Kindly state the category for this molecule: O=C1CNCCNc2ccc(cn2)-c2ccnc(n2)Nc2cccc(c2)CN2CCN1CC2
Result: middle band

Q: Quick check: band for CN1CCCN(C)c2ccc(cn2)-c2ccnc(n2)Nc2cccc(c2)CN2CCN(CC1=O)CC2COCCN1CCOCC1 (single isomer, unassigned) [Compound 100]
Result: high band

----------
Answer each item with its documented IC50.
- assay system: Vps34 (PIK3C3 lipid kinase) (Homo sapiens, UniProt Q8NEB9)
- protocol text: Biochemical Vps34 lipid kinase assay (ADP-Glo)
- measurement setup: serial half-log dilution 10 μM to 0.3 nM; pIC50 = -log IC50 (M)
- Experimental: Biochemical Vps34 Lipid Kinase Assay A non-radiometric kinase assay (ADP-Glo™ Assay, Promega, Madison, Wi, USA) was used for measuring the kinase activity of the PIK3C3 lipid kinase. All kinase assays were performed in 96-well half-area microtiter plates in a 25 μl reaction volume. […] The reaction cocktails were incubated at 30° C. for 60 minutes. […] Signal was determined with a microplate luminescence reader (Victor, Perkin Elmer). […]
Numbers only, in M.

// below: answered molecules
{"molecule": "O=C1CN2CCN(CC2)Cc2cc(F)cc(c2)Nc2nccc(n2)-c2ccc(nc2)NCCCN1 [Compound 5]", "assay system": "Vps34 (PIK3C3 lipid kinase) (Homo sapiens, UniProt Q8NEB9)", "recorded value": "6.92e-08"}
{"molecule": "O=C1CN2CCN(CC2)Cc2cccc(c2F)Nc2nccc(n2)-c2ccc(nc2)NCCCN1 [Compound 4]", "assay system": "Vps34 (PIK3C3 lipid kinase) (Homo sapiens, UniProt Q8NEB9)", "recorded value": "4.79e-07"}
{"molecule": "CN(C)C(=O)c1ccc2cc1CN1CCN(CC1)CC(=O)NCCCNc1ccc(cn1)-c1ccnc(n1)N2 [Compound 18]", "assay system": "Vps34 (PIK3C3 lipid kinase) (Homo sapiens, UniProt Q8NEB9)", "recorded value": "9.12e-07"}

Hi! Can you tell me IC50 for each of these molecules?
1. O=C1CN2CCN(CC2)Cc2cccc(c2)Nc2nccc(n2)-c2ccc(nc2)CN(CC2CCCO2)CCN1 (centres unmarked) [Compound 40]
2. CN1CCCN(C)c2ccc(cn2)-c2ccnc(n2)Nc2cccc(c2)CN2CCN(CC1=O)C(=O)C2 [Compound 82]
3. O=C1CN2CCN(CC2=O)Cc2cccc(c2)Nc2nccc(n2)-c2ccc(nc2)NCCCN1 [Compound 77]
4. CN1CCN(C)c2ccc(cn2)-c2ccnc(n2)Nc2cccc(c2)CN2CCN(C)C(CC1=O)C2 (centres unmarked) [Compound 73]
5. CN1CCCN(C)c2ccc(cn2)-c2ccnc(n2)Nc2cccc(c2)CN2CCN(CC1=O)CC2COCCN1CCOCC1 (single isomer, unassigned) [Compound 99]
6. O=C1CN2CCN(CC2)Cc2cccc(c2)Nc2nccc(n2)-c2ccc(nc2)N2CC(O)CC2CCN1 (single isomer, unassigned) [Compound 91]
7. CN1CCCN(C)c2ccc(cn2)-c2ccnc(n2)Nc2cc(F)cc(c2)CN2CCN(CC2)CC1=O [Compound 6]

Result:
1. 2.24e-07
2. 4.07e-07
3. 1.29e-07
4. 4.07e-07
5. 1.51e-06
6. 5.13e-06
7. 2.51e-07

IC50 value, target or system Vps34 (PIK3C3 lipid kinase) (Homo sapiens, UniProt Q8NEB9), for O=C1CN2CCN(CC2)Cc2cccc(c2)Nc2nccc(n2)-c2ccc(nc2)CN(CC2CC2)CCN1 [Compound 35] : 7.76e-08
